Just for reference, PubChem BioAssay (NCI) is where these values come from.

Documented growth across a set of molecules
Tested on: U251 CNS
Test: NCI-60 one-dose screen, 48 h (100 = growth as untreated, 0 = no growth, -100 = all killed)
Conditions: 10 µM
Compounds without any hit were thinned out: in the full panel of roughly 83,000, 20% have a hit.
Give the value in % but do not write % after it.

Lookup: Reported growth for CCOCC(=O)C(C#N)c1ccc(Cl)c(Cl)c1 (configuration not stated) : what is it?
Found: 94.7

Lookup: Reported growth for O=C(Nc1ccc(Cl)c(Cl)c1)Nc1c(Oc2ccc(Cl)c(Cl)c2)ccc(Cl)c1S(=O)(=O)O : what is it?
Found: 22.1

Lookup: Reported growth for CSc1nn(-c2ccccc2)c2ncnc(Oc3ccccc3)c12 : what is it?
Found: 86

Lookup: Reported growth for COc1cc(CNCCCCCCN2C(=O)c3cccc4cccc(c34)C2=O)ccc1O : what is it?
Found: 65.9

Lookup: Reported growth for CCN1CCC(CCOC)(CN2c3ccccc3Sc3ccc(Cl)cc32)C1 (configuration not stated) : what is it?
Found: 40.5

Lookup: Reported growth for COc1ccc(-c2cc(/C=C/C(=O)c3cc(OC)c(OC)c(OC)c3)[nH]n2)cc1OC : what is it?
Found: -77.6
